Biological target: recombinant pentameric gH complex (Towne strain) (human cytomegalovirus, Towne strain) (UniProt P17176)
Sequence (P17176 30-715, one chain of several): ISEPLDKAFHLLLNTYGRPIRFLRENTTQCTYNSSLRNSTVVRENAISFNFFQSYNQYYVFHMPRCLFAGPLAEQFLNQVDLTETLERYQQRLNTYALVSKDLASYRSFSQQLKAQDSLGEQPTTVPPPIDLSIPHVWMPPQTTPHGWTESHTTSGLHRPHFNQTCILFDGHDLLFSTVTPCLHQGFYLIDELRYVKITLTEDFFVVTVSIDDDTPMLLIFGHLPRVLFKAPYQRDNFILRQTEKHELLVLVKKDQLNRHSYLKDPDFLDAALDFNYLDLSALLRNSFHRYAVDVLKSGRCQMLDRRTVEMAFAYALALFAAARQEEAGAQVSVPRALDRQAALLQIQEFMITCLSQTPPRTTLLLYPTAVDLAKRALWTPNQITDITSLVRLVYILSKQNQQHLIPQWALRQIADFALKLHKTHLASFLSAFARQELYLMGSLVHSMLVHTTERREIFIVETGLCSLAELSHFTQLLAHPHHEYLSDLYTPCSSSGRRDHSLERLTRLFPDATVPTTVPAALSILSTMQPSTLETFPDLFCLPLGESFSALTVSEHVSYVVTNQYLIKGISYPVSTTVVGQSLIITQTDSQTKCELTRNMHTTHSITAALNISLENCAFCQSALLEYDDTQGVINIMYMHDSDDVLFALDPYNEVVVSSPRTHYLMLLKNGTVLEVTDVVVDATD
Experiment: BLI competition on His-pentamer; competitor (antibody 2): 324.4
Quick list: Pair-wise inhibition (%) per entry.
Respond with the bare value in %.

Use the examples below as a reference point.
{"columns": ["BINDER", "Pair-wise inhibition (%)"],
 "data": [
  ["2-25 (antibody, V domains shown) VH: QVQLVESGAEVKKPGALVKVSCKASGYTFTNYAIHWVRQASGQRLEWMGWINAGRGNTKYSQKFQGRVTITRDTSASTAYMELSSLRSEDAAVYFCARDESTGDYYYYMDVWGKGTTVTVSS VL: SYELTQPPSVSVSPGQTASITCSGDRLDDKYASWYQQKAGQSPVLVIYQDNKRPSGIPERFSGSNSGNTATLTISGTQAMDEADYYCQAWDSDTYVFGTGTKVTVL", -4],
  ["1-150 (antibody, V domains shown) VH: QVQLVESGGGLVKPGGSLRLSCAASGFSFSAYYMSWIRQAPGKGLEWISYISSSGNTIYYTDSVKGRFTIARDNAKNSLYLQMNSLRAEDTGLYYCARDSYSKLADIEATEAFDVWGQGTMVAVSS VL: SYELTQPPSVSVAPGKTARITCGGNNIGSKSVHWYQQKPGQAPVMVIYYDSDRPSGIPERFSGSNSGNTATLTISRVEAGDEADYYCQVWDSGSDRVVFGGGTKLTVL", -12]
]}

Note: attention shifts to another entry.
Notebook: 1-103 (antibody, V domains shown) VH: QLQLQESGPGLVKPSETLSLTCSVSGDAISGSNYYWGWIRQPPGKGLQWIGSIYHTGSTFYNPSFSSRVTLSVDTSKNQFSLKLISVNAADTAVYYCARRIRGYSGTYDWGQGTLVTVSS VL: DIQLTQSPSFLSASVGDRVTITCRASQDISSYVAWYQQKPGNAPKLLISSASTLPSGVPSRFSGSRSGTDFTLTISSLQPEDFATYYCQQLNNFGPGTTVDIK , Pair-wise inhibition (%) read as -19
